Please respond with reported IC50 for every item in the list.
# EXPERIMENTAL SYSTEM: MMP-2 (Homo sapiens, UniProt P08253)
# Sequence (P08253 110-660, species assumed): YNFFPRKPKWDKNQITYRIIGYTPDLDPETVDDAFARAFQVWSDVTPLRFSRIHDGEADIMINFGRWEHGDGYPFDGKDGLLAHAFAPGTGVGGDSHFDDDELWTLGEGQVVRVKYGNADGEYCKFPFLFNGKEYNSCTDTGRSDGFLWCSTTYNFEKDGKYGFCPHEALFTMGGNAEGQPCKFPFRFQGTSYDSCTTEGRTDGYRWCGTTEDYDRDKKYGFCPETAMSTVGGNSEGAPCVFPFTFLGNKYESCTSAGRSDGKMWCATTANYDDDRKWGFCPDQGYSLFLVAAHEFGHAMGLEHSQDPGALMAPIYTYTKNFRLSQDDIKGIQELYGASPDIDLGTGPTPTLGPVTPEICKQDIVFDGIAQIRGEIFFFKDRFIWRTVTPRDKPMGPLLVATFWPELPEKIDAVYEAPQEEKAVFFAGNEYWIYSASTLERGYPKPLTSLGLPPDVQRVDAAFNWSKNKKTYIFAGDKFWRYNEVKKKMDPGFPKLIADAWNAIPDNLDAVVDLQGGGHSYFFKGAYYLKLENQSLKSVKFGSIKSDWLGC
Give just the number in nM; leave the unit off.

Request: Requested read-out: IC50. Entry: Cc1ccc(Oc2ccc(S(=O)(=O)CC(C)(O)C(=O)NO)cc2)cc1C (centres unmarked)
Result: 2.4

Request: Tell me the measured IC50 of CC(O)(CS(=O)(=O)c1ccc(NC(=O)c2ccc(Cl)cc2)cc1)C(=O)NO (centres unmarked) , please.
Result: 0.5

Request: // returns reported IC50 for input "C[C@](O)(CS(=O)(=O)c1ccc(Oc2ccccc2)cc1)C(=O)NO"
Result: 11

---

# EXPERIMENTAL SYSTEM: recombinant human MMP-1 (Homo sapiens, UniProt P03956)
# Sequence (P03956 100-469): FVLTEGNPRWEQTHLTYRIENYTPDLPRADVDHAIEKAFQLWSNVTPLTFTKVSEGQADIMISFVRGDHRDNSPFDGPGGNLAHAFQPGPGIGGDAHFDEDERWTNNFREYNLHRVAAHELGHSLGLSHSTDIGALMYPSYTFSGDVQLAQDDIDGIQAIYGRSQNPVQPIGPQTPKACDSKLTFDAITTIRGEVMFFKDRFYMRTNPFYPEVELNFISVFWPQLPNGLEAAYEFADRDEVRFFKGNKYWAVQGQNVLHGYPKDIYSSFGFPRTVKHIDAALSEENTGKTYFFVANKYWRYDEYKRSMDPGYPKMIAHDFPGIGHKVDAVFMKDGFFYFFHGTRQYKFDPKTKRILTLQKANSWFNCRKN
# PROCEDURE DETAILS: In vitro metalloprotease inhibition, fluorogenic peptide assay
# MEASUREMENT PARAMETERS: APMA-activated enzyme, MCA peptide substrate 4 μM, room temperature, pH 7.5
pIC50: −log10 of the molar value.
For each record, write down the corresponding pIC50.

Request: // pIC50 lookup, key: COc1ccc(S(=O)(=O)CC(O)C(=O)NO)cc1 (stereo not drawn)
Result: < 5.00

Request: Give the measured pIC50 of "O=C(NO)[C@@H](O)CS(=O)(=O)c1ccc(Oc2ccccc2)cc1" .
Result: 5.40

Request: Need pIC50 of CC(O)(CS(=O)(=O)c1ccc(NC(=O)c2cccc(NCCCCO)c2)cc1)C(=O)NO (stereo not drawn) , thanks.
Result: < 5.00

Request: Fill in: pIC50 of O=C(Nc1ccc(S(=O)(=O)CC(O)C(=O)NO)cc1)c1ccccc1 (stereo not drawn) is ___
Result: < 5.00

Request: Consider the compound shown here: COCC(O)(CS(=O)(=O)c1ccc(Oc2ccccc2)cc1)C(=O)NO (stereo not drawn) What is its recorded pIC50?
Result: 5.10

Request: Reported pIC50 for CC(O)(CS(=O)(=O)c1ccc(NC(=O)c2cccc(Cl)c2)cc1)C(=O)NO (stereo not drawn) : what is it?
Result: < 5.00
